Biological target: T1, IL10Rα/IL2Rγ receptor (human, UniProt Q13651 22-578; P31785 23-369)
T1 sequence (looked up) 1: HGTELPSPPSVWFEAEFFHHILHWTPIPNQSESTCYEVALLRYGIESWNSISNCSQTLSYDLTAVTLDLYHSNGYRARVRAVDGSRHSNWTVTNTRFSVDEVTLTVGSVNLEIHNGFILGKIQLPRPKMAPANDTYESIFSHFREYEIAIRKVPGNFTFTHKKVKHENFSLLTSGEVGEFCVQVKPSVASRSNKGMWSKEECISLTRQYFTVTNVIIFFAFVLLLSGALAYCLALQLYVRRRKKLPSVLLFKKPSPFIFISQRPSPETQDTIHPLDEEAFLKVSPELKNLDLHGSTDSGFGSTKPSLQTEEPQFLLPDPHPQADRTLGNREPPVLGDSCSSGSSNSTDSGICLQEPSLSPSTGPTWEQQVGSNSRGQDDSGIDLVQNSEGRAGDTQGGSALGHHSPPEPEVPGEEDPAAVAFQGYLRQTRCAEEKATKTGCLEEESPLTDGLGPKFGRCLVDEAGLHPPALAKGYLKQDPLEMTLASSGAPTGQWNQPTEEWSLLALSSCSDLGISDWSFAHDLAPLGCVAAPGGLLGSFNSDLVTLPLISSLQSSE
T1 sequence (looked up) 2: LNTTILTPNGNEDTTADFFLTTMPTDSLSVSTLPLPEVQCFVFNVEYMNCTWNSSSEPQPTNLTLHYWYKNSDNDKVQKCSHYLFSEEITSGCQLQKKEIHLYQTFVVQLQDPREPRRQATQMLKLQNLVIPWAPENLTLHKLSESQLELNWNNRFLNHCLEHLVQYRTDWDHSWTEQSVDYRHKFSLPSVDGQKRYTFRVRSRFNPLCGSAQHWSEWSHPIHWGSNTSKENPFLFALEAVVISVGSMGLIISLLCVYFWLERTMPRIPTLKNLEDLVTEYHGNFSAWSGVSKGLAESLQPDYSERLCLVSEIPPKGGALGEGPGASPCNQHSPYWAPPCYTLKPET
Test: cell-based or functional assay
Exercise: for every item that follows, state its recorded pSTAT3 MFI, CD8+ T cells, 100 nM (unstimulated 1288).
# number only, unit MFI dropped from output

## Task Fill in: pSTAT3 MFI, CD8+ T cells, 100 nM (unstimulated 1288) of DR474(DR241-DR234) (bispecific antibody) QVQLQESGGGSVQAGGSLRLSCAASGYSNCSYDMTWYRQAPGKEREFVSAIHSDGSTRYADSVKGRFFISQDNAKNTVYLQMNSLKPEDTAMYYCKTDPLHCRAHGGSWYSVRANYWGQGTQVTVSSGGGSQVQLQESGGGSVQAGGSLRLSCVASGYTFSSYCMGWFRQAPGKEREGVAALGGGSTYYADSVKGRFTISQDNAKNTLYLQMNSLKPEDTAMYYCAAAWVACLEFGGSWYDLARYKHWGQGTQVTVSSASHHHHHH is ___
## Result 2460

## Task For the binder shown here, DR449(DR237-DR233) (bispecific antibody) QVQLQESGGGSVQAGGSLRLSCAASGYTYSMYCMGWFRQAPGKEREGVAQINSDGSTSYADSVKGRFTISKDNAKNTLYLQMNSLKPEDTAMYYCAADSRVYGGSWYERLCGPYTYEYNYWGQGTQVTVSSGGGSQVQLQESGGGSVQAGGSLRLSCTASGFTFDDSDMGWYRQAPGNECELVSTISSDGSTYYADSVKGRFTISQDNAKNTVYLQMNSLKPEDTAVYYCAAEPRGYYSNYGGRRECNYWGQGTQVTVSSASHHHHHH , give the reported pSTAT3 MFI, CD8+ T cells, 100 nM (unstimulated 1288).
## Result 1880

## Task Request the reported pSTAT3 MFI, CD8+ T cells, 100 nM (unstimulated 1288) associated with DR471(DR241-DR231) (bispecific antibody) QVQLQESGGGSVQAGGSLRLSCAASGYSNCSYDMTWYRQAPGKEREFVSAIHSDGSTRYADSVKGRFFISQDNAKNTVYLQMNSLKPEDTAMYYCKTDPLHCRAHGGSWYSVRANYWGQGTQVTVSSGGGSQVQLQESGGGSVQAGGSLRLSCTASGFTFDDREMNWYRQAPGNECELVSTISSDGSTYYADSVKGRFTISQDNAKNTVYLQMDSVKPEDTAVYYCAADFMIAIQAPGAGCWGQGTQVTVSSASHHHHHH
## Result 4220

## Task Look up pSTAT3 MFI, CD8+ T cells, 100 nM (unstimulated 1288) for this binder: DR441(DR236-DR231) (bispecific antibody) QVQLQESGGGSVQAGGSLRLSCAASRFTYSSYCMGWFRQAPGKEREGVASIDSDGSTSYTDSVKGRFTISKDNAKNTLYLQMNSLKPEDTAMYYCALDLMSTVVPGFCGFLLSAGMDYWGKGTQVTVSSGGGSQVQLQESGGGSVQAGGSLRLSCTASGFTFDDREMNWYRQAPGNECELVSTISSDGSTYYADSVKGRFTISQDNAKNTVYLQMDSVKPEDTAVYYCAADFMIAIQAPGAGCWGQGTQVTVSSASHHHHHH
## Result 3940

## Task Looking for the measured pSTAT3 MFI, CD8+ T cells, 100 nM (unstimulated 1288) of DR438(DR235-DR234) (bispecific antibody) QVQLQESGGGSVQAGGSLRLSCAASRYLYSIDYMAWFRQSPGKEREPVAVIYTASGATFYPDSVKGRFTISQDNAKMTVYLQMNSLKSEDTAMYYCAAVRKTDSYLFDAQSFTYWGQGTQVTVSSGGGSQVQLQESGGGSVQAGGSLRLSCVASGYTFSSYCMGWFRQAPGKEREGVAALGGGSTYYADSVKGRFTISQDNAKNTLYLQMNSLKPEDTAMYYCAAAWVACLEFGGSWYDLARYKHWGQGTQVTVSSASHHHHHH , can you help?
## Result 1830

## Task What value of measured pSTAT3 MFI, CD8+ T cells, 100 nM (unstimulated 1288) is listed for DR444(DR236-DR234) (bispecific antibody) QVQLQESGGGSVQAGGSLRLSCAASRFTYSSYCMGWFRQAPGKEREGVASIDSDGSTSYTDSVKGRFTISKDNAKNTLYLQMNSLKPEDTAMYYCALDLMSTVVPGFCGFLLSAGMDYWGKGTQVTVSSGGGSQVQLQESGGGSVQAGGSLRLSCVASGYTFSSYCMGWFRQAPGKEREGVAALGGGSTYYADSVKGRFTISQDNAKNTLYLQMNSLKPEDTAMYYCAAAWVACLEFGGSWYDLARYKHWGQGTQVTVSSASHHHHHH ?
## Result 2410

## Task Quick one: pSTAT3 MFI, CD8+ T cells, 100 nM (unstimulated 1288) for DR395(DR229-DR239) (bispecific antibody) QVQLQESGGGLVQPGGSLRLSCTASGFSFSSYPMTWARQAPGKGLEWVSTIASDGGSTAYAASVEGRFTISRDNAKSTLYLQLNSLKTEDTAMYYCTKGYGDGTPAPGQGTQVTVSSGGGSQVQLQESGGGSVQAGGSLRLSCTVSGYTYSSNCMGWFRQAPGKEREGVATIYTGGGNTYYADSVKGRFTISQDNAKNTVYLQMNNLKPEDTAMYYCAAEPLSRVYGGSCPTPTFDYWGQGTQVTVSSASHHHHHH ?
## Result 2700

Reference for the values: patent US20250163162A1
